assay-system: full length human TREX1 (Homo sapiens, UniProt Q9NSU2)
Construct: N-terminally His-Tev tagged full length human TREX1; made in house; host or cells: E. coli
Sequence (Q9NSU2 whole entry): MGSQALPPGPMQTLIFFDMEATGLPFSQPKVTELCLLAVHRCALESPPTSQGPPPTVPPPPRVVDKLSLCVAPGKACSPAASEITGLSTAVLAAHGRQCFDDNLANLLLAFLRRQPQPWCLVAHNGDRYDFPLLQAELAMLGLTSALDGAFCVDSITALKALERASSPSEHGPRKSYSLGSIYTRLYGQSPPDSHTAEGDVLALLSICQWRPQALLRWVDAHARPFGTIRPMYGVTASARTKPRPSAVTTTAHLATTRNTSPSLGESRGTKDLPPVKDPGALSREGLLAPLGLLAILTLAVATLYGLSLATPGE
procedure-details: TREX1 Kinetics Assays (TR-FRET association and dissociation, global fit with Kintek Explorer)
Type: binding
test-settings: hTREX1, TR-FRET, 25° C., global fit
assay-metric: koff (s⁻¹)

a. CC(c1nc(C(=O)Nc2cnoc2)c(O)c(=O)n1C)C(c1cnn(CC2CC2)c1)c1ccccc1C#N (single isomer, unassigned) [Example 23 D1E2]
b. Cc1cncc(C(c2ccccc2C#N)C(C)c2nc(C(=O)Nc3cnoc3)c(O)c(=O)n2C)n1 (single isomer, unassigned) [Example 53 D1E2]
c. Cc1ncc(C(c2ccccc2C#N)C(C)c2nc(C(=O)Nc3cnoc3)c(O)c(=O)n2C)nc1C (single isomer, unassigned) [Example 81 D1E2]
// smallest koff at index 0, largest at the end Give the order by naming the labels one after another as requested.
c, b, a

----------
assay-system: full length mouse TREX1 (Mus musculus, UniProt Q91XB0)
Construct: N-terminally His-Tev tagged full length mouse TREX1; made in house; host or cells: E. coli
Sequence (Q91XB0 whole entry): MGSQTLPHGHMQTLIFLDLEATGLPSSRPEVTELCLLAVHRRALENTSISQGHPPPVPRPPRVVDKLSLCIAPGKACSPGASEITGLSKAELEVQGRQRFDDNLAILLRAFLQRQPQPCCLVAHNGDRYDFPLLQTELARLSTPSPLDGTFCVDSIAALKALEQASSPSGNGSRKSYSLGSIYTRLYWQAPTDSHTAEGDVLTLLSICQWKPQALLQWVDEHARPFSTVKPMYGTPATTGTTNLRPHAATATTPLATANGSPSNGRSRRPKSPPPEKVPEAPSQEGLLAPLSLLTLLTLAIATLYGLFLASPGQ
procedure-details: mTREX1 Biochemical Assay (fluorescence, dsDNA substrate degradation)
test-settings: biochemical, read-out: mTREX1 IC50
pIC50: −log10 of the molar value.
assay-metric: pIC50

INSERT INTO measurements (compound, data_value) VALUES
  ('Cc1ncc(C(c2ccccc2Cl)C(C)c2nc(C(=O)Nc3cnoc3)c(O)c(=O)n2C)nc1C (single isomer, unassigned) [Example 125 D1E2]', '8.00 to 9.00'),
  ('CC(c1nc(C(=O)Nc2cnoc2)c(O)c(=O)n1C)C(c1cnn(C)c1)c1ccc(Cl)cc1C#N (single isomer, unassigned) [Example 27 D2E1]', '< 8.00'),
  ('Cc1nn(C)cc1C(c1cc(F)ccc1Cl)C(C)c1nc(C(=O)Nc2cnoc2)c(O)c(=O)n1C (single isomer, unassigned) [Example 62 D2E2]', '8.00 to 9.00'),
  ('COCCn1ncc(C(c2ccccc2C#N)C(C)c2nc(C(=O)Nc3cnoc3)c(O)c(=O)n2C)c1C (single isomer, unassigned) [Example 69 D2E2]', '< 8.00'),
  ('CC(c1nc(C(=O)Nc2cnoc2)c(O)c(=O)n1C)C(c1cnn(C2COC2)c1)c1ccccc1C#N (single isomer, unassigned) [Example 106 D1E1]', '8.00 to 9.00');

Next:
I would be grateful if you could share the reported pIC50 for CC(c1nc(C(=O)Nc2cnoc2)c(O)c(=O)n1C)C(c1cnn(CCO)c1)c1ccccc1C#N (single isomer, unassigned) [Example 35 D2E1] .
< 8.00

----------
assay-system: full length human TREX1 (Homo sapiens, UniProt Q9NSU2)
Construct: N-terminally His-Tev tagged full length human TREX1; made in house; host or cells: E. coli
procedure-details: hTREX1 Biochemical Assay (fluorescence, dsDNA substrate degradation)
test-settings: biochemical, read-out: hTREX1 IC50
assay-metric: IC50

Guide cases for IC50, answers given:
INSERT INTO assay_data (compound, assay_metric, data_value) VALUES
  ('CC(c1nc(C(=O)Nc2cnoc2)c(O)c(=O)n1C)C(c1ccccc1Cl)n1cc(C(F)(F)F)cn1 (single isomer, unassigned) [Example 139 D1E2]', 'IC50', '> 0.01 µM'),
  ('Cc1cc(C(c2ccccc2C#N)C(C)c2nc(C(=O)Nc3cnoc3)c(O)c(=O)n2C)n(C)n1 (single isomer, unassigned) [Example 63 D2E1]', 'IC50', '> 0.01 µM'),
  ('CC(c1nc(C(=O)Nc2cnoc2)c(O)c(=O)n1C)C(c1cnn(C(F)(F)F)c1)c1ccccc1C#N (single isomer, unassigned) [Example 151 D1E1]', 'IC50', '< 0.001 µM'),
  ('COCCCn1cc(C(c2ccccc2C#N)C(C)c2nc(C(=O)Nc3cnoc3)c(O)c(=O)n2C)cn1 (single isomer, unassigned) [Example 24 D2E2]', 'IC50', '> 0.01 µM'),
  ('CCn1ncc(C(c2ccc(F)cc2C#N)C(C)c2nc(C(=O)Nc3cnoc3)c(O)c(=O)n2C)c1C (single isomer, unassigned) [Example 65 D1E2]', 'IC50', '> 0.01 µM'),
  ('Cc1cnc(C)c(C(c2cc(F)ccc2Cl)C(C)c2nc(C(=O)Nc3cnoc3)c(O)c(=O)n2C)n1 (single isomer, unassigned) [Example 121 D2E2]', 'IC50', '> 0.01 µM'),
  ('Cc1cc(C(c2ccccc2C#N)C(C)c2nc(C(=O)Nc3cnoc3)c(O)c(=O)n2C)n(C)n1 (single isomer, unassigned) [Example 63 D1E2]', 'IC50', '0.001 to 0.01 µM'),
  ('CCn1cc(C(c2ccc(F)cc2C#N)C(C)c2nc(C(=O)Nc3cnoc3)c(O)c(=O)n2C)c(C)n1 (single isomer, unassigned) [Example 55 D1E2]', 'IC50', '> 0.01 µM');

# lookup: IC50 of CC(c1nc(C(=O)Nc2cnoc2)c(O)c(=O)n1C)C(c1cnn(CC(C)(C)O)c1)c1ccccc1Cl (single isomer, unassigned) [Example 86 D1E2]
0.001 to 0.01 µM

Sample CC(c1nc(C(=O)Nc2cnoc2)c(O)c(=O)n1C)C(c1cnn(C)c1)c1ccc(F)cc1Cl (single isomer, unassigned) [Example 74 D1E1] — what was its IC50?
< 0.001 µM

Endpoint output: IC50 of CC(c1nc(C(=O)Nc2cnoc2)c(O)c(=O)n1C)C(c1cnn(CC(F)(F)F)c1)c1ccccc1C#N (single isomer, unassigned) [Example 22 D1E1] . Value?
< 0.001 µM

Could you tell me which IC50 is on file for CC(c1nc(C(=O)Nc2cnoc2)c(O)c(=O)n1C)C(c1cnn(C)c1)c1cc(F)c(F)cc1Cl (single isomer, unassigned) [Example 28 D2E2] ?
> 0.01 µM
